# experimentalTarget: human TRPC6 (Homo sapiens, UniProt Q9Y210)
# Sequence (Q9Y210 whole entry): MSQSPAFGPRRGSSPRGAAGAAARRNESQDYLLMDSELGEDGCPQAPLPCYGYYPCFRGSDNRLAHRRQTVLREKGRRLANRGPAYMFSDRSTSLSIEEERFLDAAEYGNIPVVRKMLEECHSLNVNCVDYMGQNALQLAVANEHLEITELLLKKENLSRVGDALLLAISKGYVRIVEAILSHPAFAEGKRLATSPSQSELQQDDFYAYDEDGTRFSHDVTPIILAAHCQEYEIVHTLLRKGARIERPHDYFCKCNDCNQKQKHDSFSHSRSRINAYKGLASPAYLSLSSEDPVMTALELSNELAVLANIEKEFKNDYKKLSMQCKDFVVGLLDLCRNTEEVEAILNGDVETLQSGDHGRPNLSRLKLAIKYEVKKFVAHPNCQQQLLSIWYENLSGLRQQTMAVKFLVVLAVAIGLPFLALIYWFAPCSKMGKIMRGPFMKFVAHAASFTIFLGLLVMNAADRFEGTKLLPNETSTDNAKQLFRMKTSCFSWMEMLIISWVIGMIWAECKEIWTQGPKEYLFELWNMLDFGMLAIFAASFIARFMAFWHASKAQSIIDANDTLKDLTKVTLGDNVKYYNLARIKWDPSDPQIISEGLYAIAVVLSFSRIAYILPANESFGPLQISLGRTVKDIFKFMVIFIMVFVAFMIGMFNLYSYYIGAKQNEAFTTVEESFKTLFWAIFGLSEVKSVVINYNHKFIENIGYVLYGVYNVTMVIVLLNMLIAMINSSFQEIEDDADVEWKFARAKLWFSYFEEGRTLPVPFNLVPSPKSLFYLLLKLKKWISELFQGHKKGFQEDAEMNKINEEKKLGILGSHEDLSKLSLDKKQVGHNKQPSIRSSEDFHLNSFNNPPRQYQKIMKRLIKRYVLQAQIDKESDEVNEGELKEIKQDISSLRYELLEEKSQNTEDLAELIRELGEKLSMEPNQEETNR
# measurementProtocol: TRPC6 calcium flux assay (FLIPR, OAG-stimulated calcium influx)
# protocolConditions: HEK293 cells stably transfected with human TRPC6, read-out: hTRPC6 Potency
Where a name gives a salt, the structure may show the parent alone.
measurementType: IC50 (nM)

* N#Cc1ccc(Cn2c(N3CC[C@H](F)[C@H](N)C3)nc3cc(Cl)ccc32)nc1 [Example 9] | 1.61
* CN(CC(F)(F)F)C(=O)Cn1c(N2CC[C@@H](F)[C@H](N)C2)nc2cc(F)c(F)cc21 [Example 500] | 5.15
* COc1ccc2nc(N3CC[C@H](F)[C@H](N)C3)n(Cc3ccc(C#N)cc3)c2c1 [Example 403] | 0.395
* Cc1cc2nc(N3CC[C@@H](F)[C@H](N)C3)n(Cc3ccc(C#N)cn3)c2cc1C [Example 44] | 0.952
* N#Cc1ccc2nc(N3CC[C@H](F)[C@H](N)C3)n(Cc3ncc(Cl)cn3)c2c1 [Example 203] | 598
* N#Cc1ccc(Cn2c(N3CCC[C@@]4(CCCCN4)C3)nc3ccccc32)nc1 [Example 130] | 269
* N#Cc1ccc(Cn2c(N3CC[C@@H](F)[C@H](N)C3)nc3cc(F)cc(F)c32)nc1 [Example 64] | 132
* N[C@@H]1CN(c2nc3cc(F)c(F)cc3n2CC(=O)N2CCCc3cccnc32)CC[C@H]1F [Example 630] | 174
* N[C@@H]1CN(c2nc3cc(F)c(F)cc3n2CC(=O)N2CCn3ncnc3C2)CC[C@H]1F [Example 646] | 2310
* CNC(=O)Cn1c(N2CC[C@@H](F)[C@H](N)C2)nc2cc(F)c(F)cc21 [Example 275] | 0.32
* N#Cc1ccc(Cn2c(N3CCC[C@](N)(CO)C3)nc3ccccc32)nc1 [Example 105] | 2480
* N#Cc1ccc2nc(N3CC[C@@H](F)[C@H](N)C3)n(Cc3cnc(C#N)cn3)c2c1 [Example 249] | 7.65
* C[C@@H](c1cccc2cccnc12)n1c(N2CC[C@@H](F)[C@H](N)C2)nc2cc(F)c(F)cc21 [Example 262] | 280
* Cc1nnc(Cn2c(N3CCC(F)(F)[C@H](N)C3)nc3ccc(F)cc32)s1 [Example 588] | 811
* C[C@H](c1ccc(C#N)cc1)n1c(N2CC[C@@H](F)[C@H](N)C2)nc2ccccc21 [Example 319, hydrochloride] | 456
* N#Cc1ccc(Cn2c(N3CC[C@H](F)[C@H](N)C3)nc3cc(F)c(F)cc32)nc1 [Example 83, hydrochloride] | 0.906
* N#Cc1ccc2nc(N3CCC(F)(F)[C@H](N)C3)n(Cc3ncc(Cl)cn3)c2c1 [Example 41] | 18.4
* N[C@@H]1CN(c2nc3cc(F)ccc3n2CC(=O)N2CCC2)CC[C@H]1F [Example 514] | 185
* N[C@@H]1CN(c2nc3cc(F)c(F)cc3n2CC(=O)N2C[C@@H]3[C@H](C2)C3(F)F)CC[C@H]1F [Example 623] | 89
* N#Cc1ccc2nc(N3CC[C@@H](F)[C@H](N)C3)n(Cc3ncc(Br)cn3)c2c1 [Example 200] | 2.18
* N[C@@H]1CN(c2nc3cc(F)c(F)cc3n2CC(=O)N2CCCCCCC2)CC[C@H]1F [Example 510] | 139
* CN(C(=O)Cn1c(N2CC[C@@H](F)[C@H](N)C2)nc2cc(F)c(F)cc21)C1CC1 [Example 602] | 5.75
* N#Cc1cnc(Cn2c(N3CC[C@@H](F)[C@H](N)C3)nc3cc(F)ccc32)nc1 [Example 443] | 0.471
* N[C@@H]1CN(c2nc3cc(F)ccc3n2Cc2ncc(Cl)cn2)CC[C@H]1F [Example 290] | 1970
* N[C@@H]1CN(c2nc3cc(F)c(F)cc3n2CC(=O)N(Cc2cccs2)C2CCS(=O)(=O)C2)CC[C@H]1F (mixture of isomers) [Example 522] | 762
* N[C@@H]1CN(c2nc3cc(Cl)ccc3n2CC(=O)N2CCOCC2)CC[C@H]1F [Example 497] | 94
* N#Cc1ccc(Cn2c(N3CCC[C@@]4(CCCN4)C3)nc3ccccc32)nc1 [Example 136] | 13.9

Each recorded value in this set is attributed to patent US11332459B2.
